Consider the following compounds and their measured z-score readings.
- assay.text: MM1S cell viability effects, profiling panel, calcein-AM fluorescence, 48 h, basal (AID 1165);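 also: viability of MM1S multiple myeloma cells under basal unstimulated conditions; test concentration not given here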
- applied.conditions: higher = more signal
No unit in the answer, please; the number alone is enough.

>  <molecular.string>
CO[C@@H]1COC(=O)[C@@H]2CCCN2C(=O)CC=C[C@@H](C)[C@H](OC)COC(=O)[C@@H]2CCCN2C(=O)CC=C[C@H]1C

>  <z-score>
0.283

$$$$

Q: Would you kindly share the measured z-score for CC(=O)Nc1ccc([C@H]2[C@H](C)CC[C@H]3C(=O)N4[C@@H](CC[C@@H](C)[C@@H]4c4ccc(NC(C)=O)cc4)C(=O)N32)cc1 ?
Ans: -0.715

Q: Proceed to C=CCNC(=O)[C@H]1[C@@H]2C(=O)O[C@@H](c3ccccc3)[C@@H](c3ccccc3)N2[C@@H](c2ccc(O)cc2)[C@]12C(=O)Nc1ccc(C#CCNC(N)=O)cc12
Ans: -0.778

Q: Proceed to COCCOC(=O)N1C(=O)[C@@]2(c3cc(C#CCC(C(=O)OC)C(=O)OC)ccc31)[C@H](C(=O)N1CCN(c3ncccn3)CC1)[C@H]1C(=O)O[C@H](c3ccccc3)[C@H](c3ccccc3)N1[C@@H]2c1ccc(O)cc1
Ans: 0.613

Q: Proceed to Cc1ccc(S(=O)(=O)N[C@H]2COC(=O)CC=C[C@H](C)COC(=O)N[C@@H](C)C(=O)CC=C[C@@H]2C)cc1
Ans: 0.399

Q: Proceed to CC(=O)NCCCC[C@@H]1NC(=O)[C@H]2C[C@@H](C(=O)NCCCCCCN(C)C)[C@@H](c3ccc(O)cc3)N2C1=O
Ans: -0.327
